Cited source: BigSolDB 2.1

- studyConditions: in ethyl acetate, 283.15 K
measure: solubility (mole fraction)
Numbers only.

What value of solubility (mole fraction) has been reported for the following compound? `Cc1ccc(-c2ccccc2C#N)cc1`
0.284

====

- studyConditions: in ethyl acetate, 278.05 K
measure: solubility (mole fraction)
Answers are plain numbers.

Query: solubility (mole fraction); subject: `Cc1ccc(-c2ccccc2C#N)cc1`
0.237

====

- studyConditions: in ethyl acetate, 288.15 K
measure: solubility (mole fraction)
One number for each entry.

// lookup solubility (mole fraction) for `Cc1ccc(-c2ccccc2C#N)cc1`
0.341

====

- studyConditions: in ethyl acetate, 268.05 K
measure: solubility (mole fraction)
One number for each entry.

Consider the molecule `Cc1ccc(-c2ccccc2C#N)cc1` and give its measured solubility (mole fraction).
0.163

====

- studyConditions: in ethyl acetate, 298.13 K
measure: solubility (mole fraction)
One number for each entry.

For the compound `Cc1ccc(-c2ccccc2C#N)cc1` , what solubility (mole fraction) is on record?
0.482

====

- studyConditions: in ethanol, 278.05 K
measure: solubility (mole fraction)
Answers are plain numbers.

Any idea what solubility (mole fraction) was measured for `Cc1ccc(-c2ccccc2C#N)cc1` ?
0.0168

====

- studyConditions: in ethyl acetate, 293.15 K
measure: solubility (mole fraction)
Numbers only.

// solubility (mole fraction) lookup, key: `Cc1ccc(-c2ccccc2C#N)cc1`
0.412

====

- studyConditions: in ethanol, 293.15 K
measure: solubility (mole fraction)

I would be grateful if you could share the reported solubility (mole fraction) for `Cc1ccc(-c2ccccc2C#N)cc1` .
0.041

====

- studyConditions: in ethanol, 268.05 K
measure: solubility (mole fraction)
Give bare numbers.

If you can, please state the reported solubility (mole fraction) value of `Cc1ccc(-c2ccccc2C#N)cc1` .
0.0142

====

- studyConditions: in ethanol, 303.05 K
measure: solubility (mole fraction)
Answers are plain numbers.

Name the reported solubility (mole fraction) value associated with the molecule `Cc1ccc(-c2ccccc2C#N)cc1`
0.0958

====

- studyConditions: in ethanol, 283.15 K
measure: solubility (mole fraction)
Numbers only.

Give the measured solubility (mole fraction) of `Cc1ccc(-c2ccccc2C#N)cc1` .
0.0205

====

- studyConditions: in ethyl acetate, 303.05 K
measure: solubility (mole fraction)

Quick one: solubility (mole fraction) for `Cc1ccc(-c2ccccc2C#N)cc1` ?
0.569
